B1: EHMT1 (parent)
chain: EEINKNISDFGRQQLLPPFPSLHQ

Variants of: B1
method-notes: protein stability index of a GFP-peptide fusion (GPS, HEK-293T) (PSI 1-6); higher = more stable;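 further: lentivirally expressed fusions sorted by FACS into six bins by GFP to DsRed ratio, PSI derived from sequencing read proportions per bin multiplied by bin number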
test-parameters: c terminus: a fixed tail appended
measurement-name: protein stability index

{"mutation-string": "F10M", "measurement-name": "protein stability index", "reading": 3.04}
{"mutation-string": "P18A", "measurement-name": "protein stability index", "reading": 3.28}
{"mutation-string": "L22G", "measurement-name": "protein stability index", "reading": 3.81}
{"mutation-string": "K5R", "measurement-name": "protein stability index", "reading": 2.57}
{"mutation-string": "I3E", "measurement-name": "protein stability index", "reading": 3.78}
{"mutation-string": "L22P", "measurement-name": "protein stability index", "reading": 3.91}
{"mutation-string": "N6M", "measurement-name": "protein stability index", "reading": 2.92}
{"mutation-string": "E2D", "measurement-name": "protein stability index", "reading": 2.72}
{"mutation-string": "Q13H", "measurement-name": "protein stability index", "reading": 2.32}
{"mutation-string": "G11A", "measurement-name": "protein stability index", "reading": 2.88}
{"mutation-string": "E1P", "measurement-name": "protein stability index", "reading": 2.54}
{"mutation-string": "S21M", "measurement-name": "protein stability index", "reading": 2.01}
{"mutation-string": "L16A", "measurement-name": "protein stability index", "reading": 3.57}
{"mutation-string": "Q24F", "measurement-name": "protein stability index", "reading": 2.81}
{"mutation-string": "Q14Y", "measurement-name": "protein stability index", "reading": 1.78}
{"mutation-string": "S8Y", "measurement-name": "protein stability index", "reading": 2.53}
